Source of measurements: patent US20110165161A1

- targetDesc: T1, human EpCAM (epithelial cell adhesion/activating molecule) (human, UniProt P16422 24-314)
- T1 sequence: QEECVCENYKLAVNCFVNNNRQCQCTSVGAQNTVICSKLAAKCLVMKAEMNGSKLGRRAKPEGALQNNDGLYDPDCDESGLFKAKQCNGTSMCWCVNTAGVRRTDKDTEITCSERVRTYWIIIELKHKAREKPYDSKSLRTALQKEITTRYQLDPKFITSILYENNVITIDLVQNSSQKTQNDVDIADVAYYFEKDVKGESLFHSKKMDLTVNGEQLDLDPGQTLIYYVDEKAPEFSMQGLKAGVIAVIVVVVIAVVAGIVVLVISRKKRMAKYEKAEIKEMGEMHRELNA
- protocolDescription: cell-based or functional assay
Recorded measurements of % Annexin V/PI-positive cells, DLD-1, 3.0 µg/ml mAb, one per entry

Recorded results for 3 binders are shown here.
binder	observedResult
murine monoclonal antibody 12H8 (antibody, mouse IgG2a, V domains shown, Mouse IgG2a, kappa, from hybridoma; also called m342-12H8.3; m12H8) VH: QIQLVQSGPELKKPGETVKISCKTSGYTFTDYSMHWVNQAPGKGLKWMGWINTETGEPTYTDDFKGRFAFSLETSASTAYLQINNLKNEDTATYFCARTAVYWGQGTTLTVSS VL: DIQMTQSPSSLSASLGERVSLTCRASQEISGSLSWLQQKPDGTIKRLIYAASTLNSGVPKRFSGRRSGSDYSLTISSLESEDFVDYYCLQYSSYPWSFGGGTKLEIKR	67%
murine monoclonal antibody 4D2 (antibody, mouse IgG1, V domains shown, Mouse IgG1, kappa, from hybridoma; also called m338-4D2.20) VH: EVQLVESGGDLVKPGGSLKLSCAASGFAFDSYGMSWVRQTPGKRLEWVATISSGGYYTYYQDSVKGRFTTSRDNAKNTLDLQMSSLKSEDSAIYYCARRGNYDVDYYAMDYWGQGTSVTVSS VL: DVVMTQTPLSLPVSLGDQASISCRSSQSLVHSNGNTYLHWYLQKPGQSPKLLIYKVSNRFSGVPDRFSGSGSGTDFTLRISRVEAEDLGVYFCSQSTHVPPWTFGGGTKLEIKR	51%
murine monoclonal antibody 6D11 (antibody, mouse IgG1, V domains shown, Mouse IgG1, kappa, from hybridoma; also called m338-6D11.8) VH: EVQLVESGGDLVKPGGSLKLSCAASGFAFDSYGMSWIRQTPGTRLEWVATISSGGYYTYYEDNVKGRFIISRDNAKNTLDLQMSGLKSEDAATYYCARRGNYDVDYYAMDYWGQGTSVIVSS VL: DVVLTQIPLSLPVSLGDQASISCRSSQSLEHSNGNTYLHWYLQKPGQSPKLLIYKVSNRFSGVPDRFSGSGSGTDFTLKISRVEAEDLGVYFCSQSTHVPPWTFGGGTKLEFKR	53%

As a next step, examine the binder that follows.
The reported value for murine monoclonal antibody 2D11 (antibody, mouse IgG1, V domains shown, Mouse IgG1, kappa, from hybridoma; also called m322-2D11.19) VH: QIQLVQSGPELKKPGETVKISCKASGYTFTNYGMNWVKQAPGKGLKWMGWINTNTGEATYVEEFKGRVVFSLETSASTAYLQINNLKNEDTATYFCARIGYVWYFDVWGAGTTVTVSS VL: DIVMSQSPSSLAVSAGEKVTMSCKSSQSLFSSRTRKNYLAWYQQKPGQSPKLLIYWASTRESGVPDRFTGSGSGTDFTLTINSVQAEDLAVYYCKHSNNLFTFGSGTKLEIKR in terms of % Annexin V/PI-positive cells, DLD-1, 3.0 µg/ml mAb is 41%
